Measured % Activation, listed per entry.
- target system: ΔF508-CFTR (Homo sapiens, UniProt P13569, DEL508-508)
- Construct: host or cells: CFBE41o-, doxycycline-inducible
- Sequence (P13569 with tags, fused parts or gaps DEL508-508): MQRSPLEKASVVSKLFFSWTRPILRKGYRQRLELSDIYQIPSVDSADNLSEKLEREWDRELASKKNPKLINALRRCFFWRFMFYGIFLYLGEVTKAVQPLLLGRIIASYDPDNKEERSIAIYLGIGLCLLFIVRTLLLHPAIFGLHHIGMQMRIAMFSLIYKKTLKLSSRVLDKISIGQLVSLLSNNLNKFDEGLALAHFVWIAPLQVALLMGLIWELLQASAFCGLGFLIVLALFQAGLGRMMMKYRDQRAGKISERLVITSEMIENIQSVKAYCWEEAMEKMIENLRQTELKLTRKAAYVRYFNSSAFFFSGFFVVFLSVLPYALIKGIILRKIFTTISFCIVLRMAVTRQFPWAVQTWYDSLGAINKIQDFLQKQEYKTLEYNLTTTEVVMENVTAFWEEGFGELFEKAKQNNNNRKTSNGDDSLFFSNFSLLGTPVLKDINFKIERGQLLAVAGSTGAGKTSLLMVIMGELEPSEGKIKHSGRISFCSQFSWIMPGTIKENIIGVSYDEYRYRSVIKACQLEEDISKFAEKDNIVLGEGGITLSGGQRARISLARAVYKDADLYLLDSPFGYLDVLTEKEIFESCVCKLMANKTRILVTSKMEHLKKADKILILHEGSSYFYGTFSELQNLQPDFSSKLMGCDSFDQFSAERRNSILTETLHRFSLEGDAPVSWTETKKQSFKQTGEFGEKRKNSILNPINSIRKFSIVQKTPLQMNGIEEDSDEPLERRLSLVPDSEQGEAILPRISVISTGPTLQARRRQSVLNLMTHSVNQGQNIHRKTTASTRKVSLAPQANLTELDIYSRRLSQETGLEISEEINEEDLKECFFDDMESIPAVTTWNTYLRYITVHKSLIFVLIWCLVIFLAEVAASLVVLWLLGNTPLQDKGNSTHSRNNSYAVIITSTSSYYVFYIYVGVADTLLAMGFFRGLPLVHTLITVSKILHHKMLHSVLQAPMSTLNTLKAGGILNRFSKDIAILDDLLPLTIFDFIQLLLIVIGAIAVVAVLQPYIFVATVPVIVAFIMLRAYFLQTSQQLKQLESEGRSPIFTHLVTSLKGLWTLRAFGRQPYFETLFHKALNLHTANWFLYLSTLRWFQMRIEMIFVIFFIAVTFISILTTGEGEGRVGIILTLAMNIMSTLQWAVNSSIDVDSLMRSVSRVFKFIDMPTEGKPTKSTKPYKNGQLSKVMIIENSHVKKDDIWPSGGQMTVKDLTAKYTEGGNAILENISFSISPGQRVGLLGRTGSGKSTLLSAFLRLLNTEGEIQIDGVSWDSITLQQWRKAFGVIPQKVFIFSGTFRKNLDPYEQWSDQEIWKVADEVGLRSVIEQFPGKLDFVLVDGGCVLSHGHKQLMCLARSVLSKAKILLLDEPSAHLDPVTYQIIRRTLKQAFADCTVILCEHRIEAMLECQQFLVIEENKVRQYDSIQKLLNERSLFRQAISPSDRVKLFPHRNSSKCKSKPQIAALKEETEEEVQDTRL
- assay method text: CFTR cell surface levels using HRP-tagged ΔF508-CFTR expressing CFBE cells, in the presence of a co-corrector
- Format: cell-based
- experimental conditions: HRP-tagged ΔF508-CFTR expressing CFBE cells, in the presence of 3 μM co-corrector
Form entry: value (%) — number only.

Please review the entries below; each comes with its answer.
INSERT INTO assay_data (compound, assay_metric, recorded_result) VALUES
  ('N#CCN1CC(c2nn(-c3ccccc3)c3nc(C(=O)O)cc(-c4ccc(N5CCOCC5)cc4)c23)C1 [compound 148]', '% Activation', 238.75),
  ('O=C(O)c1cc(N2CCC3C(CCN3C3CCOCC3)C2)c2c(C3CCC3)nn(-c3ccc(F)cc3)c2n1 (centres unmarked) [compound 903]', '% Activation', 480.55),
  ('O=C(O)c1cc(OCCC2CCCCC2)c2c(C3CCC3)nn(-c3ccccc3)c2n1 [compound 633]', '% Activation', 279.27),
  ('CN1CCCN(c2cc(C(=O)O)nc3c2c(C2CCC2)nn3-c2ccccc2)CC1 [compound 702]', '% Activation', 214.1),
  ('CC(C)(C)OC(=O)N1CCC(Oc2nn(-c3ccccc3)c3nc(C(=O)O)cc(-c4ccc(N5CCC(C#N)CC5)nc4)c23)C1 (centres unmarked) [compound 552]', '% Activation', 396.65),
  ('Cc1nn(-c2ccccc2)c2nc(C(=O)O)cc(-c3ccc(NC4CCC4)cc3)c12 [compound 96]', '% Activation', 329.75),
  ('O=C(O)c1cc(N2CCC([C@@H](F)CO)CC2)c2c(C3CCC3)nn(-c3ccccc3)c2n1 [compound 458]', '% Activation', 399.6);

# next compound below
Identify measured % Activation corresponding to CC(C)c1nn(-c2cccc(N3CCOCC3)c2)c2nc(C(=O)O)cc(-c3cnc(N(C)C)nc3)c12 [compound 88] 453.15

====

# reported EC50; entries follow
- target system: ΔF508-CFTR (Homo sapiens, UniProt P13569, DEL508-508)
- Construct: host or cells: CFBE41o-, doxycycline-inducible
- assay method text: CFTR cell surface levels using HRP-tagged ΔF508-CFTR expressing CFBE cells, in the presence of a co-corrector
- Format: cell-based
- experimental conditions: HRP-tagged ΔF508-CFTR expressing CFBE cells, in the presence of 3 μM co-corrector; read-out: EC50
Give the value, in units of nM, as a plain number.

INSERT INTO assay_data (compound, recorded_result) VALUES
  ('CC(C)c1nn(-c2cccc(OC(F)(F)F)c2)c2nc(C(=O)O)cc(-c3ccc(N4CCOCC4)cc3)c12 [compound 269]', 391),
  ('CCCN1CCN(c2cc(C(=O)O)nc3c2c(C(C)C)nn3-c2ccc(F)cc2)CC1 [compound 777]', 955),
  ('CCN(CC)CCN1CCN(c2cc(C(=O)O)nc3c2c(C(C)C)nn3-c2ccc(F)cc2)CC1 [compound 800]', 1490),
  ('CC(C)c1nn(C2CCCCC2)c2nc(C(=O)O)cc(-c3ccc(N(C)C4CCOC4)nc3)c12 (stereo not drawn) [compound 276]', 372),
  ('O=C(O)c1cc(O[C@H]2CCOC2)c2c(C3CCC3)nn(-c3ccccc3)c2n1 [compound 583]', 460);

# return recorded EC50 for input CC(C)c1nn(-c2cccc(N3CCOCC3)c2)c2nc(C(=O)O)cc(-c3ccc(N(C)C4CCOCC4)cc3)c12 [compound 208] 647

Supply EC50 value. Item: CC(C)c1nn(-c2ccc(OC(F)(F)F)cc2)c2nc(C(=O)O)cc(-c3ccc(N4CCOCC4)cc3)c12 [compound 43] 371

Answer with reported EC50 of COCC1(F)CCN(c2cc(C(=O)O)nc3c2c(C2CCC2)nn3-c2ccccc2)CC1 [compound 463] 373

Identify EC50 associated with the compound Cc1nn(-c2ccccc2)c2nc(C(=O)O)cc(N3CCC(N4CCOCC4)CC3)c12 [compound 324] 2510

Look up and state reported EC50 for CC(=O)N1CC[C@@H]2CN(c3cc(C(=O)O)nc4c3c(C3CCC3)nn4-c3ccccc3)CC[C@@H]21 (single isomer, unassigned) [compound 587] 2420

Look up EC50 of O=C(O)c1cc(N2CCC(C(F)(F)F)C2)c2c(C3CCC3)nn(-c3ccccc3)c2n1 (stereo not drawn) [compound 442] and report it. 655

Data origin, for the record: patent US9796711B2
